Measured IC50 on UniProt:P18031 follows.
Sequence (P18031 whole entry): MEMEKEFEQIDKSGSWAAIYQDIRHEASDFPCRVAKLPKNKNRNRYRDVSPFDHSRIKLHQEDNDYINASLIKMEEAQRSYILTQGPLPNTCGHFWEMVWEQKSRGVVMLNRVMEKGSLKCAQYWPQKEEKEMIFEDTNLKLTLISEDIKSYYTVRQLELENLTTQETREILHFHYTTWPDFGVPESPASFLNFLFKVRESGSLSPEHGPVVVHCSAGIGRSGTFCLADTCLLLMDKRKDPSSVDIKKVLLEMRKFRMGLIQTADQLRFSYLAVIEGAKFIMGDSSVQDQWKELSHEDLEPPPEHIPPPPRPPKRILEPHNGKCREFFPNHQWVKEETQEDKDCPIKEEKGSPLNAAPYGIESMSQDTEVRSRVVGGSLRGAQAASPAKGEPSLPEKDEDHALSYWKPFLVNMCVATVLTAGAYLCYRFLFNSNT
Report only the number, with the unit nM understood.

Lab book: IC50 of CCCCCc1cc(O)cc(O)c1Oc1cc(OC)cc2c1C(=O)OC2(O)CCCC (stereo not drawn) [SAKISACAULON A] noted as 1700

Short answer for CCCCCc1c(Oc2cc(OC)cc3c2C(=O)OC3(CCCC)OC)c(O)cc(O)c1C(=O)O (stereo not drawn) : IC50 was 1500

Now take the following compound into account.
So for CCC/C=C1\OC(=O)c2c(Oc3c(O)cc(O)c(C(=O)O)c3CCCCC)cc(OC)cc21 , the logged IC50 turned out to be 500
